Each recorded value in this set is attributed to patent US20240165282A1.

target: human cloned somatostatin receptor 2 (human) (UniProt P30874); experiment: 125I-Tyr11-SRIF-14 displacement
Sequence (P30874 whole entry): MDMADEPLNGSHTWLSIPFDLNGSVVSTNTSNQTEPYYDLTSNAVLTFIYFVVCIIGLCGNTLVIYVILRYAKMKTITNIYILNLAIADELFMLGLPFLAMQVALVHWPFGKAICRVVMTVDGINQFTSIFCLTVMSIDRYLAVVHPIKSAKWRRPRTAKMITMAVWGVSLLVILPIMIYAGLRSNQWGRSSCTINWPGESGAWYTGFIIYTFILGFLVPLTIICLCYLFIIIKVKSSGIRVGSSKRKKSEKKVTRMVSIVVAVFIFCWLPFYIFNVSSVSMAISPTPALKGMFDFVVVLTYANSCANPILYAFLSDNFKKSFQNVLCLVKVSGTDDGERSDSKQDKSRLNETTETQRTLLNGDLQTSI
*1 amine or outer side, *2 acyl side, *3 side chain or, on linkers, in order; H or OH if unused. Bridges are numbered along the chain shown (N, C = ends). [ ]: non-standard residue; d: D form. The star is where a group is joined. DOTA = O=C(O)CN1CCN(CC(=O)O)CCN(CC(=O)*)CCN(CC(=O)O)CC1; N(2-mercaptoethyl)Gly = O=C(CN(CCS[*:3])[*:1])[*:2]
assay.endpoint: pIC50
Note: pIC50 values are expressed as the negative base-10 logarithm of concentration in M.

pIC50 measured on {DOTA}-[dF]RCF[dW]KTF[N(2-mercaptoethyl)Gly]-NH2 (disulfide 3-9; also: Ga complex of DOTA) [SEQ ID NO: 4] = 7.25

pIC50 measured on H-[dF]RCF[dW]KTF[N(2-mercaptoethyl)Gly]-NH2 (disulfide 3-9; SMILES C[C@@H](O)[C@@H]1NC(=O)[C@H](CCCCN)NC(=O)[C@@H](Cc2c[nH]c3ccccc23)NC(=O)[C@H](Cc2ccccc2)NC(=O)[C@@H](NC(=O)[C@H](CCCNC(=N)N)NC(=O)[C@H](N)Cc2ccccc2)CSSCCN(CC(N)=O)C(=O)[C@H](Cc2ccccc2)NC1=O) [SEQ ID NO: 1] = 6.41

pIC50 measured on {DOTA}-[dF]RCF[dW]KTF[N(2-mercaptoethyl)Gly]-NH2 (disulfide 3-9; also: Cu complex of DOTA) [SEQ ID NO: 5] = 6.38

pIC50 measured on {DOTA}-[dF]RCF[dW]KTF[N(2-mercaptoethyl)Gly]-NH2 (disulfide 3-9; also: Lu complex of DOTA) [SEQ ID NO: 6] = 6.68
